This collection of values is drawn from ChEMBL document CHEMBL4219243.

# tested-on: Proteinase-activated receptor 1 (Homo sapiens, UniProt P25116)
# Sequence (P25116 whole entry): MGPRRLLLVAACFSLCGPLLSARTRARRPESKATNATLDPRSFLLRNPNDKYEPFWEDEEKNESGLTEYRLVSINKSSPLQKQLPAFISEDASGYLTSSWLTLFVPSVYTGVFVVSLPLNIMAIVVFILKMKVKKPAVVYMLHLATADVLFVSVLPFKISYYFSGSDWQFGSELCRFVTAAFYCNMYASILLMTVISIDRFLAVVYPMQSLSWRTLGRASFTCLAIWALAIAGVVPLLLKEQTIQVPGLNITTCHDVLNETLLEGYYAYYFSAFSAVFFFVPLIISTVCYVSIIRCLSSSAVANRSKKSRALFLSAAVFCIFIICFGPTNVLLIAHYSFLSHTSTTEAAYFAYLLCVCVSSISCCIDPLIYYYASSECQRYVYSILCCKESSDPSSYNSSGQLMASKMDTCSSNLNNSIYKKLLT
# measurement-notes: Antagonist activity at PAR1 in human EAhy926 cells assessed as inhibition of TFLLRN-NH2-induced intracellular calcium mobilization pretreated for 15 mins followed by TFLLRN-NH2 addition measured at 5 secs interval for 250 secs by Fluo-4/AM dye based fluorescence assay
# Assay type: functional, cell-based
# assay-conditions: read-out: IC50
pIC50: −log10 of the molar value.
Kind request: treat 5 as inclusive, so pIC50 at 5 or higher is true (1), anything lower is false (0).

smiles-text: CCCC(=O)Nc1cccc(NC(=O)c2ccccc2Br)c1
assigned-label: true (1)

smiles-text: NCC[C@H](NC(=O)[C@H](Cc1ccc(F)c(F)c1)NC(=O)Nc1ccc2c(CN3CCCC3)nn(Cc3c(Cl)cccc3Cl)c2c1)C(=O)NCc1ccccc1
assigned-label: true (1)

smiles-text: C#CCCC(=O)Nc1cccc(NC(=O)c2ccccc2Br)c1
assigned-label: false (0)

smiles-text: CCCC(=O)Nc1cccc(NC(=O)c2ccccc2N=[N+]=[N-])c1
assigned-label: false (0)

smiles-text: CCOc1cc2c(c(F)c1OCC)C(=N)N(CC(=O)c1cc(N3CCOCC3)c(OC)c(C(C)(C)C)c1)C2
assigned-label: true (1)

smiles-text: CCC(=O)Nc1cccc(NC(=O)c2ccccc2Br)c1
assigned-label: true (1)

smiles-text: CCCCNc1cccc(NC(=O)c2ccccc2Br)c1
assigned-label: true (1)

smiles-text: CC(C)CC(=O)Nc1cccc(NC(=O)c2ccccc2Br)c1
assigned-label: true (1)
